Overview of recorded OD450 for various binders
- targetOrSystem: BSA (UniProt P02769)
- Sequence (P02769 25-607 limits assumed): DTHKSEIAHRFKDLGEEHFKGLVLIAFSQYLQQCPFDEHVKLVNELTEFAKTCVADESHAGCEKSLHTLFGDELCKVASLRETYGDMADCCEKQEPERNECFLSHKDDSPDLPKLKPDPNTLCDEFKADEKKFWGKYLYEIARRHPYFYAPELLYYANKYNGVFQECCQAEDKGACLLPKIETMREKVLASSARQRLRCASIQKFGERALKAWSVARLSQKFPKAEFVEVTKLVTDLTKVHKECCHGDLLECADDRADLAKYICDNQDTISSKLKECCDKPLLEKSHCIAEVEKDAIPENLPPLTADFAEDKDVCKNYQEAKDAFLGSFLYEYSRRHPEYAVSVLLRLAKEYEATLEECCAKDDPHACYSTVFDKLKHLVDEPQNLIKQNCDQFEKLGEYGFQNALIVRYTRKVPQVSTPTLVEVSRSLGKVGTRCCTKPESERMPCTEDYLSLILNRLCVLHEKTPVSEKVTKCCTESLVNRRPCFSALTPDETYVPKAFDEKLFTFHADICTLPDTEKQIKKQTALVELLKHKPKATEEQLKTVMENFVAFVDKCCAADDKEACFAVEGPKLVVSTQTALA
- experimentSummary: scFv ELISA
property: OD450 (OD450)

{"binder": "PcOxP_DB02_F09 (scFv, V domains shown, scFv in periplasmic extract) VH: EVQLLESGGGLVQPGGSLRLSCAASGFQFSDFYMEWVRQAPGKGLEWVAASRNKGNSYTTAYADSVKGRFTISRDNSKNTLYLQMNSLRAEDTAVYYCARDYYGSSYWYFDVWGQGTLVTVSS VL: DIVMTQSPDSLAVSLGERATINCTASESLYSSKHKVHYLAWYQQKPGQPPKLLIYGASNRYSGVPDRFSGSGSGTDFTLTISSLQAEDVAVYYCAQFYSYPLTFGGGTKVEIK", "observed": 0.08}
{"binder": "PcOxP_DB02_C03 (scFv, V domains shown, scFv in periplasmic extract) VH: EVQLLESGGGLVQPGGSLRLSCAASGFTFSDYYMEWVRQAPGKGLEWVAASRWKANDYTTEYADSVKGRFTISRDNSKNTLYLQMNSLRAEDTAVYYCARDYYGSSYWYFDVWGQGTLVTVSS VL: DIVMTQSPDSLAVSLGERATINCTASESLYSSKHKVHYLAWYQQKPGQPPKLLIYGASNRYIGVPDRFSGSGSGTDFTLTISSLQAEDVAVYYCAQFYVYPLTFGGGTKVEIK", "observed": 0.1}
{"binder": "PcOxP_DB01_E09 (scFv, V domains shown, scFv in periplasmic extract) VH: EVQLLESGGGLVQPGGSLRLSCAASGNTFSDFYMEWVRQAPGKGLEWVAASRNKANDYTTEYADSVKGRFTISRDNSKNTLYLQMNSLRAEDTAVYYCARDYYGSSYWYFDVWGQGTLVTVSS VL: DIVMTQSPDSLAVSLGERATINCTASESLYSSKHKVHYLAWYQQKPGQPPKLLIYGASNRYIGVPDRFSGSGSGTDFTLTISSLQAEDVAVYYCANFYSYPLTFGGGTKVEIK", "observed": 0.06}
{"binder": "PcOxP_DB02_C12 (scFv, V domains shown, scFv in periplasmic extract) VH: EVQLLESGGGLVQPGGSLRLSCAASGFTFSDHYMEWVRQAPGKGLEWVAASRNKANDYTTEYADSVKGRFTISRDNSKNTLYLQMNSLRAEDTAVYYCARDYYGSSYWYFDVWGQGTLVTVSS VL: DIVMTQSPDSLAVSLGERATINCTASESLYSSKHKVHYLAWYQQKPGQPPKLLIYGAHNRYIGVPDRFSGSGSGTDFTLTISSLQAEDVAVYYCANFYSYPLTFGGGTKVEIK", "observed": 0.07}
{"binder": "PcOxP_DB02_A06 (scFv, V domains shown, scFv in periplasmic extract) VH: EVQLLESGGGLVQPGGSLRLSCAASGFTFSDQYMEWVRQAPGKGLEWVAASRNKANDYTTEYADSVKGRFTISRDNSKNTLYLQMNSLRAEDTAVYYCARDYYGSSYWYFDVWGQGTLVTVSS VL: DIQMTQSPSSLSASVGDRVTITCTASESLYSSKHKVHYLAWYQQKPGKAPKLLIYGLSNRYIGVPSRFSGSGSGTDFTLTISSLQPEDFATYYCAQFYSYPLTFGGGTKVEIK", "observed": 0.1}
{"binder": "PcOxP_DB01_G06 (scFv, V domains shown, scFv in periplasmic extract) VH: EVQLLESGGGLVQPGGSLRLSCAASGFTFSDYYMEWVRQAPGKGLEWVAASRNKWNDYTTEYADSVKGRFTISRDNSKNTLYLQMNSLRAEDTAVYYCARDYYGSSYWYFDVWGQGTLVTVSS VL: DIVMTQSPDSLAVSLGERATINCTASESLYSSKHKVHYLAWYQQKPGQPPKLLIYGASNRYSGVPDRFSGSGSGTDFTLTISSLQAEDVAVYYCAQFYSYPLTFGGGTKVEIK", "observed": 0.06}
{"binder": "PcOxP_DB01_F07 (scFv, V domains shown, scFv in periplasmic extract) VH: EVQLLESGGGLVQPGGSLRLSCAASGDTFSDFYLEWVRQAPGKGLEWVAASRNKANGYTTEYADSVKGRFTISRDNSKNTLYLQMNSLRAEDTAVYYCARDYYHSSYWYFDVWGQGTLVTVSS VL: DIVMTQSPDSLAVSLGERATINCTASESLYSSKHKVHYLAWYQQKPGQPPKLLIYGASNRYIGVPDRFSGSGSGTDFTLTISSLQAEDVAVYYCAHFYSYPLTFGGGTKVEIK", "observed": 0.06}
{"binder": "PcOxP_DB04_G03 (scFv, V domains shown, scFv in periplasmic extract) VH: EVQLLESGGGLVQPGGSLRLSCAASGFTTSDFYMEWVRQAPGKGLEWVAASRNKANDYTTEYADSVKGRFTISRDNSKNTLYLQMNSLRAEDTAVYYCARDYYGSSYWYFDYWGQGTLVTVSS VL: DIVMTQSPDSLAVSLGERATINCTASESLYSSKHKVHYLAWYQQKPGQPPKLLIYGASNRNIGVPDRFSGSGSGTDFTLTISSLQAEDVAVYYCAHFYSYPLTFGGGTKVEIK", "observed": 0.07}
{"binder": "PcOxP_DB02_C05 (scFv, V domains shown, scFv in periplasmic extract) VH: EVQLLESGGGLVQPGGSLRLSCAASGFTASDFYMEWVRQAPGKGLEWVAASRNKANDYTTEYADSVKGRFTISRDNSKNTLYLQMNSLRAEDTAVYYCARDYYGSSYWYFDVWGQGTLVTVSS VL: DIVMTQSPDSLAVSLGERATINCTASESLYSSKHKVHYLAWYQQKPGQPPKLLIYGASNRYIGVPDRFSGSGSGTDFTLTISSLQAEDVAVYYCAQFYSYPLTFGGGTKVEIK", "observed": 0.06}
{"binder": "PcOxP_DB03_A05 (scFv, V domains shown, scFv in periplasmic extract) VH: EVQLLESGGGLVQPGGSLRLSCAASGFTFSEFYMEWVRQAPGKGLEWVAASRNKANDYTTEYADSVKGRFTISRDNSKNTLYLQMNSLRAEDTAVYYCARDYYGSSYWYFDVWGQGTLVTVSS VL: DIVMTQSPDSLAVSLGERATINCTASESLYSSKHKVHYLAWYQQKPGQPPKLLIYGASNRAIGVPDRFSGSGSGTDFTLTISSLQAEDVAVYYCAQFYFYPLTFGGGTKVEIK", "observed": 0.06}
